- METHOD: NCI Yeast Anticancer Drug Screen. Data for the mec2-1 strain (AID 157)
- SETUP CONDITIONS: S. cerevisiae mec2-1 strain, at 50.0 µM, stronger effect = higher value
This is part of a sample that, as a whole, favours compounds with a hit. Of some 79,000 tested, about 15% had one in any assay. Active and inactive are the calls of the source. No stated cut-off is given here; in the data, active means growth inhibition above about 70%; inactive means the rest.
// growth inhibition lookup, one value per entry

> print(dat)
                                   molecule             result
1                   c1cc2nc(c1)CSCCCCCCCSC2     45% (inactive)
2                     Cn1cnc2c(=O)[nH]cnc21  -12.7% (inactive)
3  Cc1cc2c(c(C(=O)NCC(=O)O)c1)Oc1c(cc(C)cc1C(=O)NCC(=O)O)S2   20.1% (inactive)

Query :: Dear colleague, please send me the reported growth inhibition for COc1cc2c3cc1Oc1c(OC)c(OC)cc4c1C(Cc1ccc(O)c(c1)Oc1ccc(cc1)CC3N(C)CC2)CN(C)C4 (stereo unspecified) when you can.
Result :: -37.9% (inactive)

Query :: // fetch growth inhibition given entry COc1ccc(-c2cc(=O)c3c(O)cc(O)cc3o2)c(OC)c1OC
Result :: -17.7% (inactive)

Query :: Determine from records and report growth inhibition for N=C(N)c1ccncc1
Result :: 5.75% (inactive)

###

- METHOD: NCI Yeast Anticancer Drug Screen. Data for the rad50 strain (AID 155);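 further: 0% = growth of vehicle-only cultures of the same strain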
- SETUP CONDITIONS: S. cerevisiae rad50 strain growth inhibition; at 50.0 µM; stronger effect = higher value
- Description: Growth inhibition of yeast strains with defined genetic alterations is measured as a screen for potential anti-cancer activity. Selected strains with alterations in DNA damage repair or cell cycle control were exposed to compounds and growth inhibition was measured relative to vehicle treated controls. The strain used in this assay is rad50
This is part of a sample that, as a whole, favours compounds with a hit. Of some 79,000 tested, about 15% had one in any assay.
ASSAY ENDPOINT: growth inhibition (%)
Respond numerically; units are % and should not be typed.

Query :: Give the reported value of growth inhibition for this record: NC(Cc1ccc(S(=O)(=O)O)cc1)C(=O)NC(Cc1ccc(S(=O)(=O)O)cc1)C(=O)NC(Cc1ccc(S(=O)(=O)O)cc1)C(=O)O (configuration not stated)
Result :: -4.25

Query :: Tell us which growth inhibition value is on record for C=C(S(=O)(=O)CC)S(=O)(=O)CC
Result :: 28.9

Query :: Report growth inhibition, nothing else, for this molecule: CC(C)(OC(=O)c1ccc([N+](=O)[O-])cc1)C1CC1
Result :: -12.1

###

- METHOD: NCI Yeast Anticancer Drug Screen. Data for the rad50 strain (AID 155);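 further: 0% = growth of vehicle-only cultures of the same strain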
- SETUP CONDITIONS: S. cerevisiae rad50 strain growth inhibition; at 50.0 µM
Compounds without any hit were thinned out: in the full panel of roughly 79,000, 15% have a hit. Calls of active or inactive are those of the source. No stated cut-off is given here; in the data, active means growth inhibition above about 70%; inactive means the rest.
Valid outcomes are listed here; reply with one: active, inactive

For orientation, consider the following solved cases.
> print(dat)
                                   compound     label
1  CCCC1(c2ccccc2)OCC(CO)O1 (stereo unspecified)  inactive
2             COc1ccc(/C(C)=N/NC(N)=S)cc1OC  inactive
3            Nc1nc(N)c2c(n1)Nc1ccc(Cl)nc1S2    active
4                             NCCNCc1ccccc1  inactive
5       NNC(=O)c1ccc(OCc2nc3ccccc3[nH]2)cc1  inactive

Query :: Look up the recorded call for Cc1ccccc1CN in this test.
Result :: inactive

Query :: Hi, sorry to bother you, what did the test record for CCC1CN2CCc3cc(OC)c(OC)cc3C2CC1(O)C#N (stereo unspecified) ?
Result :: inactive

Query :: State the result this test recorded for CCNC(CC1CCCCC1)C(=O)O (stereo unspecified) .
Result :: inactive

Query :: Fill in: this test's call for CC1CCC23C1CC(CC(=O)C2(C)O)C3(C)C (stereo unspecified) is ___
Result :: inactive

Query :: Given O=C(NCCc1[nH]nc2c1C(=O)C=C(Nc1ccccc1)C2=O)OCc1ccccc1 , state the outcome it received in this test.
Result :: inactive

Query :: Please state the recorded outcome for this compound: N#CC(C#N)=CNC(=S)Nc1ccc(S(=O)(=O)Nc2nccs2)cc1
Result :: inactive

Query :: Hi team, can someone confirm the assay call for Cc1ccc(C(=O)C(c2nc3n(c2O)/C(=N/C(=O)Nc2ccc(Cl)cc2)N=N3)c2nc3n(c2O)/C(=N/C(=O)Nc2ccc(Cl)cc2)N=N3)cc1 ?
Result :: inactive

Query :: Field: outcome | Entry: Cc1cc(C)n(-c2nnc(-n3nc(C)cc3C)c3ccccc23)n1
Result :: inactive

Query :: Fill in: this test's call for COC(=O)c1ccc(C(=O)OC)c2nc3cc(Cl)ccc3nc12 is ___
Result :: inactive

Query :: Dear colleague, could you share the recorded outcome for S=C=NCCCCCCCCCCCCN=C=S when you have a moment?
Result :: active

Query :: Assay result, entry COC(=O)Nc1nc2ccc(C3c4c(n[nH]c4C)CC(C)(O)C3C(C)=O)cc2[nH]1 (stereo unspecified) — outcome?
Result :: inactive

Query :: Can you look up the reported call for CCN(CC)CCN1Cc2ccccc2C1 for me?
Result :: inactive

Query :: For this compound, state the assay outcome: COC(CNCCO)c1ccccc1 (stereo unspecified)
Result :: inactive

Query :: Could you check what this test reported for OC1c2ccccc2OC2(N3CCCC3)CCCCC12 (stereo unspecified) ?
Result :: inactive

Query :: Test call, this compound: CNC(=O)NC1C(CO)OC2OC(C)(C)OC21 (stereo unspecified)
Result :: inactive

Query :: For Cc1cc2cc3oc(C)cc3cc2o1 , which call appears in the assay record?
Result :: inactive

Query :: Call for entry O=C(c1ccc(F)cc1)c1ccc2ccccc2c1 :
Result :: inactive

Query :: Outcome logged for Cc1cc(CN2CCCCC2)c(O)c(CN2CCCCC2)c1 in this assay:
Result :: inactive

Query :: Name the outcome recorded for O=c1[nH]c2c(Cl)cccc2c2ccccc12 in the assay.
Result :: inactive

Query :: Entry N#CCCP(=O)(O)CO : call = ?
Result :: inactive

Query :: How did this test come out for O=C(O)/C=C/C(=O)Nc1ccc2c(c1)C(O)c1ccccc1-2 (stereo unspecified) ?
Result :: inactive

Query :: State the result this test recorded for O=C(O)c1cc(-c2c(Cl)cccc2Cl)nc2cc3ccccc3cc12 .
Result :: inactive
